All figures here come from PubChem BioAssay AID1963835.

# Tested on: 699152-130-R-J1-PDC complex spheroid viability
# protocol: Anticancer human tumor 699152-130-R-J1-PDC patient-derived pancreatic carcinoma cell line growth inhibition [POLQ]
# measurement.setup: curve of first compound; second compound 0.0316 µM
pIC50: −log10 of the molar value.
measurement.kind: pIC50

// pIC50 lookup, molecule = Nc1ccn(C2OC(CO)C(O)C2(F)F)c(=O)n1 (stereo not given) + Nc1ccc(C#CCN(C(=O)Cc2ncc(C(F)(F)F)cc2C(F)(F)F)c2ccc(F)cc2)nn1 , result: 6.32

// pIC50 lookup, molecule = C#Cc1c(F)ccc2cc(O)cc(-c3ncc4c(N5CC6CCC(C5)N6)nc(OCC56CCCN5CC(F)C6)nc4c3F)c12 (stereo not given) + Cc1cccc(N(C)C(=O)C2C(O)CCN2c2nc(C)cc(C(F)(F)F)c2C#N)c1 , result: > 7.50

// pIC50 lookup, molecule = COc1cc2cc(C(=O)CCC(=O)O)sc2cc1OC + Nc1ccc(C#CCN(C(=O)Cc2ncc(C(F)(F)F)cc2C(F)(F)F)c2ccc(F)cc2)nn1 , result: < 5.00

// pIC50 lookup, molecule = CC(C)n1c(=O)n(C)c2cnc3cc(F)c(-c4ccc(OCCCN5CCCCC5)nc4)cc3c21 + Nc1ccc(C#CCN(C(=O)Cc2ncc(C(F)(F)F)cc2C(F)(F)F)c2ccc(F)cc2)nn1 , result: < 5.00

// pIC50 lookup, molecule = CC1COCCN1c1cc(-c2ccnn2C)c2ccnc(-c3ccn[nH]3)c2n1 (stereo not given) + COC1C(OC(N)=O)C(O)C(Oc2ccc3c(O)c(NC(=O)c4ccc(O)c(CC=C(C)C)c4)c(=O)oc3c2C)OC1(C)C , result: < 5.00

// pIC50 lookup, molecule = CC1COCCN1c1cc(C2(O)CC3CCC(C2)O3)c2cnn(-c3ccn[nH]3)c2n1 (stereo not given) + COC1C(OC(N)=O)C(O)C(Oc2ccc3c(O)c(NC(=O)c4ccc(O)c(CC=C(C)C)c4)c(=O)oc3c2C)OC1(C)C , result: 5.87

// pIC50 lookup, molecule = O=C(Nc1ccc(O)c(NS(=O)(=O)c2ccc(F)cc2)c1)c1ccc(-c2ccccc2)cc1 + COC1C(OC(N)=O)C(O)C(Oc2ccc3c(O)c(NC(=O)c4ccc(O)c(CC=C(C)C)c4)c(=O)oc3c2C)OC1(C)C , result: < 5.00

====

Attribute: viability, T/C
# Test system: 699152-130-R-J1-PDC complex spheroid viability
# protocol: Anticancer human tumor 699152-130-R-J1-PDC cell line growth inhibition [POLQ];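 further: spheroids exposed to agents for 7 days before viability reading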;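 on viability, T/C: percent of DMSO vehicle control viability so 100% = vehicle and 0% = no viable signal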
# measurement.setup: second compound 10 µM; first compound 10 µM; stronger effect = lower value
Number in %, nothing else.

Below, each entry is followed by its recorded viability, T/C result.
molecule: COc1cc(C2c3cc4c(cc3C(OC3OC5COC(C)OC5C(O)C3O)C3COC(=O)C23)OCO4)cc(OC)c1O (stereo not drawn) + Nc1ccc(C#CCN(C(=O)Cc2ncc(C(F)(F)F)cc2C(F)(F)F)c2ccc(F)cc2)nn1
target.or.test.system: 699152-130-R-J1-PDC complex spheroid viability
viability, T/C [%]: 50.7
--
molecule: CC1COCCN1c1cc(C2(O)CC3CCC(C2)O3)c2cnn(-c3ccn[nH]3)c2n1 (stereo not drawn) + COC1C(OC(N)=O)C(O)C(Oc2ccc3c(O)c(NC(=O)c4ccc(O)c(CC=C(C)C)c4)c(=O)oc3c2C)OC1(C)C
target.or.test.system: 699152-130-R-J1-PDC complex spheroid viability
viability, T/C [%]: 36.3

// viability, T/C lookup, molecule = O=C(Nc1ccc(O)c(NS(=O)(=O)c2ccc(F)cc2)c1)c1ccc(-c2ccccc2)cc1 + Cc1cccc(N(C)C(=O)C2C(O)CCN2c2nc(C)cc(C(F)(F)F)c2C#N)c1 , result: 63.7
